Molecular target: D(2) dopamine receptor (Rattus norvegicus) (UniProt P61169)
Sequence (P61169 whole entry): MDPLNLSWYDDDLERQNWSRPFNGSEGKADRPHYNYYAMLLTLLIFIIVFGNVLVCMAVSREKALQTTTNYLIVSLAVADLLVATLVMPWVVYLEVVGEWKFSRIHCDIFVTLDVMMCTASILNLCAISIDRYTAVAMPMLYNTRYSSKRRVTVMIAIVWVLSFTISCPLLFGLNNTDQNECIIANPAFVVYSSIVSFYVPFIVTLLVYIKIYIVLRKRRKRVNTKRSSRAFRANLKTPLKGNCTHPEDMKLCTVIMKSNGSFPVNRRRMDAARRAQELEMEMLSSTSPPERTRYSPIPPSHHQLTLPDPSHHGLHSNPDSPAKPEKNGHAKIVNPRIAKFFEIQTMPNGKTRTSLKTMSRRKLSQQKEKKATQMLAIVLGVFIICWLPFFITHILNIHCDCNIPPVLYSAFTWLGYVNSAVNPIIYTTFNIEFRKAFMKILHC
Test: Binding affinity at dopamine receptor D2 from rat by spiropiperidone displacement.
Label YES when % displacement of spiropiperidone is at or above 20%; anything below gets NO.

[ask] Determine whether this compound has % displacement of spiropiperidone no lower than 20%: c1ccc2c(c1)N=C(N1CCN(CC3COCCO3)CC1)c1ccccc1S2 (stereo unspecified)
[reply] YES

[ask] Determine whether this compound has % displacement of spiropiperidone no lower than 20%: "COC[C@H](CN1CCN(C2=Nc3ccccc3Sc3ccccc32)CC1)OC"
[reply] NO

[ask] Determine whether this compound has % displacement of spiropiperidone no lower than 20%: "OCCOCCN1CCN(C2=Nc3cc(Cl)ccc3Oc3ccccc32)CC1"
[reply] YES

[ask] Determine whether this compound has % displacement of spiropiperidone no lower than 20%: "OCCOCCN1CCN(C2=Nc3ccc(O)cc3Cc3ccccc32)CC1"
[reply] YES

[ask] Determine whether this compound has % displacement of spiropiperidone no lower than 20%: "CN1CCN(C2=Nc3cc(Cl)ccc3Oc3ccccc32)CC1"
[reply] YES

[ask] Determine whether this compound has % displacement of spiropiperidone no lower than 20%: "OCCOCCN1CCN(C2=Nc3cccc(F)c3Sc3ccccc32)CC1"
[reply] NO
